test system: NCI-H661; assay: relative viability (nuclei count vs DMSO), 5 days (fraction); higher = more cells survive; conditions: first compound 0.08 µM
Item-by-item account of relative viability
Answer field: number only, no words.

Answered cases to consult:
| COMPOUND | relative viability |
| --- | --- |
| COc1nc(C)cnc1NS(=O)(=O)c1cccnc1-c1ccc(-c2nnco2)cc1 [Zibotentan] + CCNC(=O)c1noc(-c2cc(C(C)C)c(O)cc2O)c1-c1ccc(CN2CCOCC2)cc1 [Luminespib] (partner 0.01 µM) | 0.953 |
| O=c1cc(-c2cccc3c2Sc2ccccc2S3)oc(N2CCOCC2)c1 + O=C(c1cc(Cc2n[nH]c(=O)c3ccccc23)ccc1F)N1CCN(C(=O)C2CC2)CC1 [Olaparib] (partner 8 µM) | 0.809 |

// next entry
Task: Reported relative viability, compound COc1nc(C)cnc1NS(=O)(=O)c1cccnc1-c1ccc(-c2nnco2)cc1 [Zibotentan] + CS(=O)(=O)CCNCc1ccc(-c2ccc3ncnc(Nc4ccc(OCc5cccc(F)c5)c(Cl)c4)c3c2)o1 [Lapatinib] (partner 2 µM) : ____
Output: 0.453

Where these numbers come from: the supplement of paper PMC10307832
